Test system: LOVO cells
Experimental Protocol: LOVO CTG proliferation assay (120 h) (CRC, G13D)
Type: cell-based
Experimental Parameters: Homo sapiens, CTG 120 h
pIC50: −log10 of the molar value.
Readout Type: pIC50

{"columns": ["Molecule", "pIC50"],
 "data": [
  ["C[C@H](Oc1cc(-n2ccc(-c3cnccn3)n2)nc(-c2noc3c2CCC[C@@]32CCCc3sc(N)c(C#N)c32)n1)[C@@H]1CCCN1C [II-130]", 6.72]
]}

A. C[C@H](Oc1cc(-c2ccn([C@H]3CCOC3)n2)nc(-c2noc3c2CCC[C@@]32CCCc3sc(N)c(C#N)c32)n1)[C@@H]1CCCN1C [II-127]
B. CN[C@H]1CCN(c2cc(O[C@@H](C)[C@@H]3CCCN3C)nc(-c3noc4c3CCC[C@@]43CCCc4sc(N)c(C#N)c43)n2)C1 [II-35]
## Input Kindly compare A with B and tell me which has the lower pIC50 figure. Answer by quoting the chosen item's label.
## Output B

###

Experimental Protocol: Plasma protein binding assay (PPB), equilibrium dialysis, 10% FCS in PBS
Format: in vitro ADME
Experimental Parameters: bovine, read-out: PPB 10% FCS (% fu)
Description: Binding of test compounds to plasma was determined using equilibrium dialysis (ED) and quantitative mass spectrometry interfaced with liquid chromatography (LC-MS). […] After incubation, protein was precipitated from aliquots of each chamber and the concentration of test compound in the supernatant of the plasma-containing compartment (Cserum) and of the buffer-containing compartment (Cbuffer) was determined by LC-MS. […]
Readout Type: fraction unbound

Past entries and their recorded results:
{"columns": ["Structure As Smiles", "Readout Type", "Number"],
 "data": [
  ["C[C@H](Oc1cc(-n2cnc(C(=O)N(C)C)c2)nc(-c2noc3c2CCC[C@@]32CCCc3sc(N)c(C#N)c32)n1)[C@@H]1CCCN1C", "fraction unbound", 0.38],
  ["Cc1cn(-c2cc(O[C@@H](C)[C@@H]3CCCN3C)nc(-c3noc4c3CCC[C@@]43CCCc4sc(N)c(C#N)c43)n2)nn1", "fraction unbound", 0.2],
  ["C[C@H](Oc1cc(-n2ccc(-c3ccccn3)n2)nc(-c2noc3c2CCC[C@@]32CCCc3sc(N)c(C#N)c32)n1)[C@@H]1CCCN1C", "fraction unbound", 0.04],
  ["C[C@H](Oc1cc([C@H]2CCN(C)C2)nc(-c2noc3c2CCC[C@@]32CCCc3sc(N)c(C#N)c32)n1)[C@@H]1CCCN1C", "fraction unbound", 0.54],
  ["CO[C@H]1CCN(C)[C@@H]1[C@H](C)Oc1cc(N2CCN(C)C3(CC3)C2)nc(-c2noc3c2CCC[C@@]32CCCc3sc(N)c(C#N)c32)n1", "fraction unbound", 0.08],
  ["C[C@H](Oc1cc(-n2ccnc2)nc(-c2onc3c2CCC[C@@]32CCCc3sc(N)c(C#N)c32)n1)[C@@H]1CCCN1C", "fraction unbound", 0.58],
  ["C[C@H](Oc1cc(N2CCNC3(CC3)C2)nc(-c2onc3c2CCC[C@@]32CCCc3sc(N)c(C#N)c32)n1)[C@@H]1CCCN1C", "fraction unbound", 0.51]
]}

I. C[C@H](Oc1cc(N2C[C@H](C)NC3(CC3)C2)nc(-c2noc3c2CCC[C@@]32CCCc3sc(N)c(C#N)c32)n1)[C@@H]1C[C@@H](F)CN1C
II. C[C@H](Oc1cc(N2CCN(C)C3(CC3)C2)nc(-c2noc3c2CCC[C@@]32CCCc3sc(N)c(C#N)c32)n1)[C@@H]1C[C@@H](F)CN1C
III. COCCNC(=O)c1ccn(-c2cc(O[C@@H](C)[C@@H]3[C@@H](OC)CCN3C)nc(-c3noc4c3CCC[C@@]43CCCc4sc(N)c(C#N)c43)n2)n1
## Input // ascending sort on recorded fraction unbound // respond by listing labels in the order requested
## Output III, I, II

###

Test system: KRAS G12C-dependent Ba/F3 cells
Experimental Protocol: Ba/F3 proliferation assay, KRAS G12C
Format: cell-based
Experimental Parameters: Mus musculus, BaF3, 72 h, AlamarBlue
Readout Type: IC50 (nM)

Use the examples below as a reference point.
{"columns": ["Structure As Smiles", "IC50, nM"],
 "data": [
  ["C[C@H](Oc1cc(-n2cc3ccn([C@H]4CCOC4)c(=O)c3n2)nc(-c2noc3c2CCC[C@@]32CCCc3sc(N)c(C#N)c32)n1)[C@@H]1CCCN1C", 18],
  ["C[C@H](Oc1cc(-c2ccccn2)nc(-c2noc3c2CCC[C@@]32CCCc3sc(N)c(C#N)c32)n1)[C@@H]1CCCN1C", 19],
  ["CCOC(=O)c1ccn(-c2cc(O[C@@H](C)[C@@H]3CCCN3C)nc(-c3noc4c3CCC[C@@]43CCCc4sc(N)c(C#N)c43)n2)n1", 8],
  ["C[C@H]1CN(C)CCCN1c1nc(-c2onc3c2CCC[C@@]32CCCc3sc(N)c(C#N)c32)cc(N2CCN(C)C3(CC3)C2)n1", 867],
  ["C[C@H](Oc1nc(-c2onc3c2CCC[C@@]32CCCc3sc(N)c(C#N)c32)cc(N2CCNC3(CC3)C2)n1)[C@@H]1CCCN1C", 493],
  ["C[C@H](Oc1cc(N2C[C@@H]3[C@@H](N)[C@@H]3C2)nc(-c2noc3c2CCC[C@@]32CCCc3sc(N)c(C#N)c32)n1)[C@@H]1CCCN1C", 884]
]}

1. C[C@H](Oc1cc(-n2ccnc2)nc(-c2noc3c2CCC[C@@]32CCCc3sc(N)c(C#N)c32)n1)[C@@H]1C[C@@H](F)CN1C
2. C[C@H](Oc1cc(-n2ccc(C(N)=O)n2)nc(-c2noc3c2CCC[C@@]32CCCc3sc(N)c(C#N)c32)n1)[C@@H]1CCCN1C
## Input Parameter metric = IC50. Return the lower-valued option from 1 and 2 . Give the label of your selection.
## Output 2

P. C[C@H](Oc1cc(N2CCOC3(COC3)C2)nc(-c2noc3c2CCC[C@@]32CCCc3sc(N)c(C#N)c32)n1)[C@@H]1CCCN1C
Q. C[C@H](Oc1cc(N2CCN(CCO)CC2)nc(-c2noc3c2CCC[C@@]32CCCc3sc(N)c(C#N)c32)n1)[C@@H]1CCCN1C
R. CO[C@@H]1C[C@@H]([C@H](C)Oc2cc(-n3ccnc3)nc(-c3noc4c3CCC[C@@]43CCCc4sc(N)c(C#N)c43)n2)N(C)C1
S. C[C@H](Oc1cc(-n2cc(C3CC3)nn2)nc(-c2noc3c2CCC[C@@]32CCCc3sc(N)c(C#N)c32)n1)[C@@H]1CCCN1C
## Input Hey, quick one: sort these by IC50, largest value first please. Sort the labels as requested; that list is your answer.
## Output Q, R, S, P
(Q: 301 nM, R: 41 nM, S: 25 nM, P: 14 nM)

###

Test system: KRAS G12C-dependent Ba/F3 cells
Experimental Protocol: Ba/F3 proliferation assay, KRAS G12C
Type: cell-based
Experimental Parameters: Mus musculus, BaF3, 72 h, AlamarBlue
Readout Type: IC50 (nM)

{"columns": ["Compound", "Result Unit", "IC50"],
 "data": [
  ["C[C@H](Oc1cc(N2C[C@H](C)N(C)[C@@H](C)C2)nc(-c2onc3c2CCC[C@@]32CCCc3sc(N)c(C#N)c32)n1)[C@@H]1CCCN1C", "nM", 170]
]}

I. C[C@H](Oc1cc(-c2ccn(C)n2)nc(-c2noc3c2CCC[C@@]32CCCc3sc(N)c(C#N)c32)n1)[C@@H]1CCCN1C
II. C[C@H](Oc1cc(-n2ccc(-c3cn(C4CCOCC4)nn3)n2)nc(-c2noc3c2CCC[C@@]32CCCc3sc(N)c(C#N)c32)n1)[C@@H]1CCCN1C
III. C[C@H](Oc1cc(N2CCN(C)C3(COC3)C2)nc(-c2onc3c2CCC[C@@]32CCCc3sc(N)c(C#N)c32)n1)[C@@H]1C[C@@H](F)CN1C
IV. C[C@H](Oc1cc(N2CCNCC23CCOC3)nc(-c2onc3c2CCC[C@@]32CCCc3sc(N)c(C#N)c32)n1)[C@@H]1CCCN1C (stereo partly drawn)
V. C[C@H](Oc1cc(-n2cc3c(n2)CCN(C)C3)nc(-c2noc3c2CCC[C@@]32CCCc3sc(N)c(C#N)c32)n1)[C@@H]1CCCN1C
## Input Rank items: key IC50, increasing. Answer format: the labels, in the requested order.
## Output II, I, V, IV, III

1. C[C@H]1CNCCCN1c1cc(-c2ccn(C)n2)nc(-c2noc3c2CCC[C@@]32CCCc3sc(N)c(C#N)c32)n1
2. C[C@H](NC(=O)c1ccn(-c2cc(O[C@@H](C)[C@@H]3CCCN3C)nc(-c3onc4c3CCC[C@@]43CCCc4sc(N)c(C#N)c43)n2)n1)c1ccccn1
3. C[C@H](Oc1cc(N2C[C@@H](N(C)C)[C@@H](F)C2)nc(-c2noc3c2CCC[C@@]32CCCc3sc(N)c(C#N)c32)n1)[C@@H]1CCCN1C
## Input Endpoint returns the given compounds ordered by ascending IC50. // respond by listing labels in the order requested
## Output 2, 3, 1
(2: 2 nM, 3: 241 nM, 1: 1020 nM)

a. C[C@H](Oc1nc(-c2onc3c2CCC[C@@]32CCCc3sc(N)c(C#N)c32)cc(N2CCN(C)C3(CC3)C2)n1)[C@@H]1CCCN1C
b. C[C@H](Oc1cc(-c2cccc(CO)c2)nc(-c2noc3c2CCC[C@@]32CCCc3sc(N)c(C#N)c32)n1)[C@@H]1CCCN1C
## Input Of a and b , which carries the smaller reported IC50 figure? I would appreciate it if you answered with the label of your choice.
## Output b

Values from patent US20240174690A1
